readout-kind: melting point

// below: answered compounds
In [3]: df
Out[3]:
                                   compound       reported
0  c1cnn(Cc2ccc3c(c2)Cc2c(-c4ccsc4)n[nH]c2-3)c1  262 to 270 °C
1  COc1ccccc1N1CCN(CCCNc2ncc3cc(-c4c(Cl)cccc4Cl)c(=O)n(C)c3n2)CC1  187 to 188 °C
2  C=CCN1C(=O)N(CC=C)[C@@H](C(=O)O)[C@H]1C(=O)O  161 to 163 °C

Entry C=CCC(C(=O)OC)(C(=O)OC)C(Cc1ccccc1N)c1ccc(OC)cc1 (stereo unspecified) ; melting point = 117 to 118 °C

// melting point lookup, compound = O=C(O)/C=C/c1ccc(Oc2c(-c3ccccc3)c(C(F)(F)F)cc3ccccc23)cc1 , result: 210 to 211 °C

GET /value?item= Cc1cc(NC(=O)C(C)(O)COc2cccc(C#N)c2)ccc1[N+](=O)[O-] (stereo unspecified) &field=melting point returns 107 to 110 °C

response.value for Cn1cc(-c2cccc(O)c2)c(=O)c(C2CCCCC2)c1 (field: melting point) = 155 to 165 °C

The recorded melting point for entry O=S(=O)(c1ccccc1)c1c[nH]c2ncccc12 equals > 250 °C
